# Tested on: anticorps anti-nef
# Assay comment: ELISA for detection of anti-nef antibodies on coated peptides or nef
# Format: binding, humain
# Condition info: ELISA, out of 31 anti-nef positive sera
Where no end group is shown, it is not given here. The star is where a group is joined. Acm = CC(=O)NC*
# note: exactly 20 is not below, so it is No; use Yes for nombre de sérums anti-nef positifs ayant réagi strictly under it

Would you please look over these solved cases?
GMDDPEREVLEWRFDSRLAFHHVARELHPEYFKNC(acm) (GMDDPEREVLEWRFDSRLAFHHVARELHPEYFKNC(Acm)) [PF16, protéine F HIV-1, séquence 171-205]    No
XCGYFPDWQNYTPGPGVRYPLTFGWCYKLVPVEPDKVEEANKGENTSLL HPVZ [PF15, protéine F HIV-1, séquence 118-167]    Yes
XGGKWSKSSVVGWPTVRERMRRAEPAADGVGAASRDLEKHGAITSSNTA ATNAACAWLEAQEEEEVGZ [PF12, protéine F HIV-1, séquence 1-66]    Yes
XCVGFPVTPQVPLRPMTYKAAVDLSHFLKEKGGLEGLIHSQRRQDILZ [PF14]    Yes
XCYKLVPVEPDKVEEANKGENTSLLHPVSLHGMDDPEREVLEWRFDSRL AFHHVARELHPEYFKNCZ [PF17, protéine F HIV-1, séquence 141-205]    No

# evaluate next
Input: nombre de sérums anti-nef positifs ayant réagi under 20? Item: XCKGGLEGLIHSQRRQDILDLWIYHTQGYFPDZ [PF18]
Output: Yes

---

# Test system: anticorps anti-nef
# Assay comment: ELISA for detection of anti-nef antibodies on coated peptides or nef
# Assay type: binding, humain
# Condition info: Serum 6, anti-nef positive; 500 ng coated per well
Property: intensité de l'immunoréactivité (OD), Serum 6

XCKGGLEGLIHSQRRQDILDLWIYHTQGYFPDZ [PF18]    + (pour OD = 0,2 à 0,4)
XCGYFPDWQNYTPGPGVRYPLTFGWCYKLVPVEPDKVEEANKGENTSLL HPVZ [PF15, protéine F HIV-1, séquence 118-167]    + (pour OD = 0,2 à 0,4)
